- TARGET SYSTEM: T1, RarA (Bacillus subtilis, UniProt O34528 1-421)
- T1 sequence: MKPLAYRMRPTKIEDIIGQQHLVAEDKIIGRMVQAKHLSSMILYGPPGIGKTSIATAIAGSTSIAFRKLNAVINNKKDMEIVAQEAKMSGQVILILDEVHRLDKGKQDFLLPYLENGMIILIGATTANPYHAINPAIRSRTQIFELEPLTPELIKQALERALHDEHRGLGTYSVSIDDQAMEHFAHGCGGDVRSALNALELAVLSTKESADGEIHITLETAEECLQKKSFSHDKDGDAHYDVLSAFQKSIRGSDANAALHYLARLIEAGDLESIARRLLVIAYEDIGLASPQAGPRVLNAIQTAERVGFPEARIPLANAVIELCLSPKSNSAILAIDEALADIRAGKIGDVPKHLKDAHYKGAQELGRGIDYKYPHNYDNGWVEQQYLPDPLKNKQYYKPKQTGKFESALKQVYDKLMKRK
- EXPERIMENTAL PROTOCOL: EMSA
pKd: −log10 of the molar value.
PROPERTY: pKd

>>> reading("dsDNA (100U/100D) (dsDNA) DNA 1: GGGCGAATTGGGCCCGACGTCGCATGCTCCTCTAGACTCGAGGAATTCGGTACCCCGGGTTCGAAATCGATAAGCTTACAGTCTCCATTTAAAGGACAAG DNA 2: CTTGTCCTTTAAATGGAGACTGTAAGCTTATCGATTTCGAACCCGGGGTACCGAATTCCTCGAGTCTAGAGGAGCATGCGACGTCGGGCCCAATTCGCCC")
"~7.43"
